- Tested on: KM12 colon
- testSummary: NCI tumour cell line growth inhibition, 48 h
Collected TGI values appear next to each entry.

{"molecule": "CCCC[C@@H]1NC(=O)[C@H](CCCCN)NC(=O)[C@H](CCCNC(=N)N)NC(=O)[C@H](CC(C)C)NC(=O)[C@@H](NC(=O)[C@H](Cc2cccc(Cl)c2)NC(=O)[C@@H]2CCCN2C(=O)[C@@H](NC(C)=O)C(C)C)CCSSC[C@@H](C(=O)N[C@@H](CCCCN)C(=O)N2CCC[C@H]2C(=O)N2CCC[C@H]2C(=O)N[C@@H](CCC(=O)O)C(N)=O)NC(=O)[C@H](Cc2ccccc2)NC(=O)[C@H](CO)NC(=O)[C@H](C)NC(=O)[C@@H]2CCCN2C1=O", "TGI": "> 50 µM"}
{"molecule": "On1c(-c2ccccc2)c(-c2c(-c3ccccc3)n(O)c3ccccc23)c2ccccc21", "TGI": "> 100 µM"}
{"molecule": "C=C1C(=O)O[C@H]2[C@H]1CC/C(COC(=O)OCCCCCOC(=O)OC/C1=C/CC[C@@]3(C)O[C@H]3[C@H]3OC(=O)C(=C)[C@@H]3CC1)=C\\CC[C@@]1(C)O[C@@H]21", "TGI": "3.31 µM"}
{"molecule": "C[C@@H]1O[C@@H](O[C@H]2C[C@@H](O)[C@]3(CO)C4C(CC[C@]3(O)C2)[C@@]2(O)CC[C@H](C3=CC(=O)OC3)[C@@]2(C)C[C@H]4O)[C@H](O)[C@H](O)[C@H]1O (some centres not stated)", "TGI": "0.132 µM"}
{"molecule": "COC(=O)OC[C@H]1O[C@@H](n2cc(C)c(=O)[nH]c2=O)CC1OC(=O)OC (some centres not stated)", "TGI": "> 100 µM"}
{"molecule": "CCOC(=O)C1(Cc2ccc(C)cc2)Cc2ccc(C)cc2C1=O (configuration not stated)", "TGI": "> 72.3 µM"}
{"molecule": "CSc1n[nH]c(N)c1C(=O)Nc1ccc(Cl)cc1", "TGI": "> 100 µM"}
{"molecule": "CCOc1ncn(-c2ccc(NC(=S)Nc3cccc(O)c3)cc2)n1", "TGI": "> 100 µM"}
{"molecule": "C=C(NC(=O)C(=C)NC(=O)c1csc(C2=NC3c4csc(n4)C4NC(=O)c5csc(n5)C(C(C)(O)C(C)O)NC(=O)C5CSC(=N5)/C(=C/C)NC(=O)C(C(C)O)NC(=O)c5csc(n5)C3(CC2)NC(=O)C(C)NC(=O)C(=C)NC(=O)C(=C)NC(=O)C(C(C)C)NC2C=Cc3c(C(C)O)cc(nc3C2O)C(=O)OC4C)n1)C(N)=O (configuration not stated)", "TGI": "> 100 µM"}
{"molecule": "COc1cc2c(cc1O)[C@H](C)C(c1ccc(Cl)cc1)O2 (some centres not stated)", "TGI": "62.1 µM"}
{"molecule": "COc1ccc(-c2cc(C(=O)Nc3cccc(C(F)(F)F)c3)[nH]c(=S)n2)cc1", "TGI": "> 100 µM"}
{"molecule": "CC1=C/C(=C(\\c2ccc(N(C)C)cc2)c2ccc([N+](C)(C)C)cc2)C=CC1=[N+](C)C", "TGI": "16.1 µM"}
